Listed here are substances together with their documented amyloid nucleation score.
- Protocol summary: amyloid nucleation score (Sup35N fusion, yeast selection) (log enrichment); library NNK2; higher = more nucleation; inactive = no reads after selection;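 further: zero at mode of non-aggregating sequences after 7 days selection at 30°C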
Returns: the value as a bare number; no unit string appended.

Reference set (9 entries):
| Substance | amyloid nucleation score |
| --- | --- |
| YTMGLVSFCLQLGSASFDI | 3.56 |
| LNFWLHD | 0.09 |
| NFAQWW | 0.443 |
| DMHCFSEGRHGGLTCAGCLR | 1.1 |
| MNLWVMAFR | 6.5 |
| CILLTGPSYSLKLAYSDCLS | -1.15 |
| SKKELLNAVPVGMG | 0.113 |
| DRRLCLCLLIMSC | -0.578 |
| CRLRVDVGECDRGLYALRVW | 1.21 |

Determine its reported amyloid nucleation score: `ALSDCL`
-0.427

---

- Protocol summary: amyloid nucleation score (Sup35N fusion, yeast selection) (log enrichment); library NNK2; higher = more nucleation; inactive = no reads after selection
Measurement label: amyloid nucleation score
The answer should be written as a number, with no unit following it.

| Sequence code | Val |
| --- | --- |
| QMGCWLGLLVDSLYLSWLVT | -0.2 |
| CCSFNLISLYSKVRARSELP | 8.77 |
| ISYIIKILRKVVSWDNDMEV | -1.25 |
| IIFVVVASQKVHWFVRVDGD | -0.658 |
| LQASIIAMVRGRTNDSFLED | 2.7 |
| IITLSYGGCSVGPCGQ | 7.37 |

With those in mind, consider the next sequence.
// fetch amyloid nucleation score given entry `QLFVMADNVRESSKTLRTIW`
-0.513

---

- Protocol summary: amyloid nucleation score (Sup35N fusion, yeast selection) (log enrichment); library NNK2; higher = more nucleation; inactive = no reads after selection
Items are presented alongside their recorded amyloid nucleation score.
Just the number, please, no unit after it.

| Sequence code | amyloid nucleation score |
| --- | --- |
| YYACNKAND | -0.607 |

Give me measured amyloid nucleation score, please, for this sequence: `FHQIKFRVSFMHCRTSSANI`
2.25

Annotate the sequence `FGMILPFGDIFTLASDFRVR` with its measured amyloid nucleation score.
-0.833

For the sequence `SLSCSESGVKNRKVVELGWM` , report amyloid nucleation score.
0.432

Report measured amyloid nucleation score; entry is `QLNFYNQTQCVLGEVTTLN`
-0.476

Return amyloid nucleation score (reported value) for this sequence: `SFDLAVTECIALCFRCYQVF`
-1.04

Fill in reported amyloid nucleation score for this entry: `WTVRSARFWMSKQVVFSTTV`
0.812

Note amyloid nucleation score for the sequence shown: `AVSFRFIGVYRGM`
3.95

Name the recorded amyloid nucleation score of the item `DDCCSVNAMHSANCMMVVR` in your answer.
0.09

---

- Protocol summary: amyloid nucleation score (Sup35N fusion, yeast selection) (log enrichment); library NNK2; higher = more nucleation; inactive = no reads after selection
# amyloid nucleation score >= 0.6 gives MET, anything below gives NOT MET

Solved entries (count: 3):
| Substance | Discrete label |
| --- | --- |
| TFATYTISNCLYVPRPVT | MET |
| LAGNKYPWLS | NOT MET |
| YTRWWLWWGFNNCWRYWSEK | NOT MET |

Record `RSSADAPVY` ; criterion: amyloid nucleation score no lower than 0.6. Met?
NOT MET

Decide: amyloid nucleation score of `NDMFLSYLHSPWYNVLCDFI` >= 0.6?
NOT MET

Hello, I need to know if `YALCLKALEFMVMGLPSSRM` has measured amyloid nucleation score not below 0.6. Thanks!
NOT MET

Determine whether measured amyloid nucleation score meets or exceeds 0.6 for `RRGENIDESVRVVEWGVDVM`
MET

Entry `DNIKTVSRMTWPWLMFTVGG` : is its amyloid nucleation score no less than 0.6?
NOT MET

Does the reported amyloid nucleation score for `HDYFTYT` fall at or above the 0.6 mark?
MET

Assess whether reported amyloid nucleation score for `YYLSFCVSNAGAPGMDLMGQ` sits at 0.6 or higher.
NOT MET

Reference source: the supplement of paper PMC12042874
